- Test name: Assay for Oral Absorption in Rat (plasma level by MMP-3 inhibition bioassay)
- Condition parameters: rat, po, 100 mg/kg
Parameter: AUC at 4 h (ng·h/mL)
# output: bare number, implied unit ng·h/mL

Exercise: Query: AUC at 4 h; subject: CNC(=O)C(CCCCNC(C)=N)NC(=O)C(CC(C)C)C(C)C(=O)NO (stereo not shown) [Compound No. 22]
Solution: 9130

---

- Measured on: human fibroblast collagenase (Homo sapiens, UniProt P03956)
- Sequence (P03956 100-469): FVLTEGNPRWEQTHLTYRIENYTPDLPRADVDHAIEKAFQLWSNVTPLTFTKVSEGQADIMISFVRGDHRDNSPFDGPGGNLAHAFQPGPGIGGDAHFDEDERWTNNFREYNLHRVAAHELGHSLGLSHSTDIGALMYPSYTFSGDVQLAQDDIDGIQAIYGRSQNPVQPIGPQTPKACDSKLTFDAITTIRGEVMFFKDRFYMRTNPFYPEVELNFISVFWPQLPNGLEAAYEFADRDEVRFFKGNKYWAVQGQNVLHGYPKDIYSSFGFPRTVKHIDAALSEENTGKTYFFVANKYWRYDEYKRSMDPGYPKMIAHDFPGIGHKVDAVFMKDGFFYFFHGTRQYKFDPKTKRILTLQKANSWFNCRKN
- Test name: Assay for inhibition of collagenase (fluorescein-labeled bovine type I collagen substrate)
- Assay type: biochemical
Parameter: pIC50
Lab note — pIC50 values are minus log10 of concentrations in M.

Exercise: Notebook: pull reported pIC50 for human fibroblast collagenase (Homo sapiens, UniProt P03956), entry CNC(=O)[C@H](CCCNC(=N)N)NC(=O)[C@H](CC(C)C)C(CC(C)C)C(=O)NO (single isomer, unassigned)
Solution: 8.30

---

- Measured on: UniProt P08254
- Sequence (P08254 100-477): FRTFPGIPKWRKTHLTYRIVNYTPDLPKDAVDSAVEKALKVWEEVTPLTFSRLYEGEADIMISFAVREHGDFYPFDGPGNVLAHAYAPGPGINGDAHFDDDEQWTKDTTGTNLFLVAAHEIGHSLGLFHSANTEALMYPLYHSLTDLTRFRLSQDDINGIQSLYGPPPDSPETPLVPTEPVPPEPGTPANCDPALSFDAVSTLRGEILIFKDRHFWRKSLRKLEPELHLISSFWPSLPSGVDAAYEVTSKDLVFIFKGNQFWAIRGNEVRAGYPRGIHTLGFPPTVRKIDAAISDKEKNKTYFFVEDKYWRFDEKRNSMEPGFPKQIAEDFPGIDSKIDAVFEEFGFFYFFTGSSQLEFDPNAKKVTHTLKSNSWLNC
- Test name: Assay for inhibition of stromelysin (fluorescein-labeled casein substrate)
- Type: biochemical
- Condition parameters: read-out: Inhibition of MMP-3; plasmin-activated human fibroblast prostromelysin, 37°C, 2 hours, pH 7.8
Parameter: pIC50
Lab note — pIC50 values are minus log10 of concentrations in M.

Illustrative cases are given below, each with its answer.
{"Compound": "CNC(=O)[C@H](CCCCN)NC(=O)[C@H](CC(C)C)C(CCCc1ccc(CN)cc1)C(=O)NO (single isomer, unassigned) [Compound No. 61]", "Reported measurement": 7.64}
{"Compound": "CNC(=O)[C@H](CCCCN)NC(=O)[C@H](C(C)C)C(CCCc1ccccc1)C(=O)NO (single isomer, unassigned) [Compound No. 74]", "Reported measurement": 7.21}

Exercise: Query: pIC50; subject: CCCCOCCC(C(=O)NO)[C@@H](CC(C)C)C(=O)N[C@@H](CCCCN)C(=O)NC (single isomer, unassigned) [Compound No. 69]
Solution: 7.70

---

- Test name: in vivo
- Condition parameters: rat, po, 100 mg/kg
For each record, check the reported AUC at 4 h: if it is below 4000 ng·h/mL write MET, else write NOT MET.

Below are worked cases with known answers.
{"Compound": "CNC(=O)[C@@H](NC(=O)[C@H](CC(C)C)[C@H](O)C(=O)NO)C(C)(C)C [Reference Compound No. 2, reference compound]", "Class label": "MET"}
{"Compound": "CNC(=O)[C@H](CCCCN)NC(=O)[C@H](C(C)C)C(CCCc1ccccc1)C(=O)NO (single isomer, unassigned)", "Class label": "NOT MET"}
{"Compound": "CCCCOCCC(C(=O)NO)[C@@H](CC(C)C)C(=O)N[C@@H](CCCCN)C(=O)NC (single isomer, unassigned)", "Class label": "MET"}
{"Compound": "CC(=N)NCCCCC(NC(=O)C(CC(C)C)C(CCCc1ccccc1)C(=O)NO)C(=O)NCCN(C)C (stereo not shown)", "Class label": "MET"}
{"Compound": "CNC(=O)C(Cc1ccc(CN)cc1)NC(=O)C(CC(C)C)C(C)C(=O)NO (stereo not shown)", "Class label": "NOT MET"}

Attention now turns to another entry.
Exercise: Item CNC(=O)[C@H](CCCCN)NC(=O)[C@H](CC(C)C)C(CCCc1ccc(CN)cc1)C(=O)NO (single isomer, unassigned) : AUC at 4 h beneath 4000 ng·h/mL, strictly?
Solution: NOT MET
